Molecular target: Prostaglandin G/H synthase 2 (Homo sapiens, UniProt P35354)
Sequence (P35354 whole entry): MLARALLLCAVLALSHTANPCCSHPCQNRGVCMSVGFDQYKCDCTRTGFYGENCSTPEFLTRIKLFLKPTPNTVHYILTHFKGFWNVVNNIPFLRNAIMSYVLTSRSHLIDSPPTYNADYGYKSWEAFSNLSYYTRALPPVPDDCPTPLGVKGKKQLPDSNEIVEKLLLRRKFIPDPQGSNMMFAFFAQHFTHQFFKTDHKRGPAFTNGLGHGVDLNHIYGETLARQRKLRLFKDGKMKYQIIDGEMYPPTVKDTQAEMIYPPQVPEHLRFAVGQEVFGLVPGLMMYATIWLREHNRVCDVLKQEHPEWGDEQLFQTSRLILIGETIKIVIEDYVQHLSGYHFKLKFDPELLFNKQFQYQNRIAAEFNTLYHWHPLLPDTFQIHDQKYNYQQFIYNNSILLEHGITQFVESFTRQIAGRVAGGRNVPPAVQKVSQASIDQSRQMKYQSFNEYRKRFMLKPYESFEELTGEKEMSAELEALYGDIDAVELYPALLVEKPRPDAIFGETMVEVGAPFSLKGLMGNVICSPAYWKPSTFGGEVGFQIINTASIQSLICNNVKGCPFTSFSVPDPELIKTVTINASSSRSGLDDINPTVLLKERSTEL
In this section we review reported pIC50 values for a set of compounds.
Kindly note that pIC50 refers to -log10 of the concentration in mol/L and answer with the value alone.

# sample.smiles, measured.number
measured = [
    ("NS(=O)(=O)c1ccc(-c2nc3ccccc3n2-c2ccc(Cl)cc2)cc1", 6.70),
]

Turning now to a further record.
Item: COc1ccccc1-n1c(-c2ccc(S(N)(=O)=O)cc2)nc2ccccc21 | System: Prostaglandin G/H synthase 2 (Homo sapiens, UniProt P35354) | pIC50: 5.10
